# study target: Aβ1-40 (Homo sapiens)
# Construct: Both Aβ1-40 and Aβ1-42 were purchased from Anaspec
# method: ThT fluorescence assay, inhibition of Aβ1-40 aggregation
I'd appreciate it if you could supply pIC50 values for the items below.
Numbers only, as −log10 of the molar value.

Some molecules with recorded pIC50:
molecule	study target	quantitative readout
Oc1ccc2cc(-c3c[nH]c4ccc(O)cc34)ccc2c1 [QR-0225]	Aβ1-40 (Homo sapiens)	5.15
O=C(O)c1ccc2[nH]cc(-c3c(O)c(O)cc4ccccc34)c2c1 [QR-0194]	Aβ1-40 (Homo sapiens)	4.75
Oc1ccc(Nc2cccc(Nc3ccc(O)cc3)c2)cc1 [QR-0325]	Aβ1-40 (Homo sapiens)	5.99
Oc1ccc2[nH]cc(-c3c(O)c(O)cc4ccccc34)c2c1 [QR-0212]	Aβ1-40 (Homo sapiens)	5.09
COc1ccc2[nH]cc(-c3c[nH]c4ccc(N)cc34)c2c1 [QR-0185]	Aβ1-40 (Homo sapiens)	4.90

Quick request: pIC50 for each listed item, please.
1. Oc1cc2ccccc2c(-c2c[nH]c3ccccc23)c1O [QR-0189]
2. O=C(O)c1cccc2c(-c3c[nH]c4ccc(Br)cc34)c[nH]c12 [QR-0303]
3. COc1ccc2cc(-c3c[nH]c4c(C(=O)O)cccc34)ccc2c1 [QR-0262]
4. COc1cccc(Nc2cccc(Nc3cccc(OC)c3)c2)c1 [QR-0315]
5. Oc1cccc(Nc2cccc(Nc3cccc(O)c3)c2)c1 [QR-0326]
6. O=C(O)c1cccc2c(-c3ccc4cc(O)ccc4c3)c[nH]c12 [QR-0258]

Result:
1: 4.72; 2: 4.68; 3: 5.36; 4: 5.24; 5: 5.48; 6: 5.00

List the reported pIC50 of each molecule below.
1. O=C(O)c1ccc2c(-c3c[nH]c4ccc([N+](=O)[O-])cc34)c[nH]c2c1 [QR-0327]
2. Oc1ccc2cc(-c3cc4ccccc4o3)ccc2c1Br [QR-0297]
3. COc1ccc2[nH]cc(-c3c[nH]c4ccc([N+](=O)[O-])cc34)c2c1 [QR-0171]
4. N#Cc1ccc2[nH]cc(-c3c[nH]c4ccc(Br)cc34)c2c1 [QR-0240]

Result:
[4.94, 6.24, 5.24, 4.92]

###

# study target: Aβ1-40 (Homo sapiens, UniProt P05067)
# Construct: Both Aβ1-40 and Aβ1-42 were purchased from Anaspec
# Sequence (P05067 672-711 limits assumed): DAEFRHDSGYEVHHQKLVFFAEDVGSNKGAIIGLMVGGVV
# method: ThT fluorescence assay, inhibition of Aβ1-40 aggregation
reported metric: IC50 (µM)
Give bare numbers, in µM.

Some solved cases for reference:
molecule	IC50 (µM)
Oc1ccc(Nc2cccc(Nc3ccc(O)cc3)c2)cc1 [QR-0319]	2.4
O=C(O)c1cccc2c(-c3cc4ccccc4s3)c[nH]c12	10.3
O=C(O)c1cc2cc(-c3ccc4c(c3)OCCO4)ccc2c(Br)c1O	4.6

Give measured IC50 for every item shown.
1. COc1ccc2cc(-c3c[nH]c4ccc(C(=O)O)cc34)ccc2c1
2. O=C(O)c1cc2cc(-c3cc4ccccc4o3)ccc2c(Br)c1O
3. Nc1ccc2[nH]cc(-c3c[nH]c4ccc(Br)cc34)c2c1
4. O=C(O)c1ccc2c(c1)c(-c1ccc3cc(O)ccc3c1)cn2Cc1ccccc1
5. O=C(O)c1cc2cc(-c3ccc4cc(O)ccc4c3)ccc2c(Br)c1O
6. Oc1cc2ccccc2c(-c2cc3ccccc3o2)c1O

Result:
1. 35.5
2. 5.6
3. 1.7
4. 17.5
5. 1.93
6. 3

Parameters: items (list). Returns: IC50 for each item.
1. O=C(O)c1cccc2c(-c3cc4ccccc4s3)cn(Cc3ccccc3)c12
2. Oc1ccc2cc(-c3ccc4c(c3)OCCO4)ccc2c1

Result:
1: 19.5; 2: 18.9

Report IC50 for each item below.
1. N#Cc1ccc2[nH]cc(-c3ccc4cc(O)ccc4c3)c2c1
2. O=C(O)c1ccc2[nH]cc(-c3c[nH]c4cccc(O)c34)c2c1
3. O=C(O)c1ccc2c(-c3c[nH]c4ccc(O)cc34)c[nH]c2c1

Result:
[6.5, 1.99, 11.8]

Below are 2 molecules. Give each one its IC50.
1. Oc1cc2ccccc2c(-c2ccc3c(c2)OCCO3)c1O
2. O=C(O)c1cccc2c(-c3cc4ccccc4o3)c[nH]c12

Result:
1: 27.8; 2: 17.1

All values here come from patent US8362066B2.
